Measured pIC50, listed per entry for reference.
# subject of test: human factor XIa (Homo sapiens (Human))
# Sequence (P03951 388-625): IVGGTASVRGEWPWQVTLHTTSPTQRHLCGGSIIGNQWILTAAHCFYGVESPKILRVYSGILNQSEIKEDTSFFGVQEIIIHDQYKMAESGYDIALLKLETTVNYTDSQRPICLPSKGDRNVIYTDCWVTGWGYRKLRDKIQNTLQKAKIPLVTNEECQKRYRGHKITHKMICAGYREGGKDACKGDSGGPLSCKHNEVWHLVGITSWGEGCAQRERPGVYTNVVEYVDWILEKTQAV
# Sequence (P03951 19-387 partner): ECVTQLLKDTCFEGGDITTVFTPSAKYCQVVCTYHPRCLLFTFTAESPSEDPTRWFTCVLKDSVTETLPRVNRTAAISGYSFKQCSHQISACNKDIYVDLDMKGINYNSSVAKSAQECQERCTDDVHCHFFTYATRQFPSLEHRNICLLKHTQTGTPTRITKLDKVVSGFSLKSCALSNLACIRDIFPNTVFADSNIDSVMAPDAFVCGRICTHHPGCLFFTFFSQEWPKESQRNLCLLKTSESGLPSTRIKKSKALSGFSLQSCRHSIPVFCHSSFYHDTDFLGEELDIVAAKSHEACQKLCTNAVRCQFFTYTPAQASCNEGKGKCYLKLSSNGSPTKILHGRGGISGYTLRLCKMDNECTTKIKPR
Reminder that pIC50 means the negative base-10 logarithm of the concentration expressed in mol/L.

compound | subject of test | pIC50
N#Cc1ccc(Cl)cc1-c1cc(=O)n(C(Cc2cnco2)C(=O)Nc2ccc3nccn3c2)cc1OC(F)F (racemic) | human factor XIa (Homo sapiens (Human)) | 6.30

Asked: Complete the entry with pIC50 for N#Cc1ccc(Cl)cc1-c1cc(=O)n(C(Cc2cocn2)C(=O)Nc2ccc3nccn3c2)cc1Cl (racemic)
Given back: 6.51

Asked: Complete the entry with pIC50 for O=C(Cn1cc(Cl)c(-c2cc(Cl)ccc2OC(F)F)cc1=O)Nc1ccc2nc(C(=O)O)cn2c1
Given back: 6.42

----------
# subject of test: human plasma kallikrein (Homo sapiens (Human), UniProt P03952)
# Sequence (P03952 391-638): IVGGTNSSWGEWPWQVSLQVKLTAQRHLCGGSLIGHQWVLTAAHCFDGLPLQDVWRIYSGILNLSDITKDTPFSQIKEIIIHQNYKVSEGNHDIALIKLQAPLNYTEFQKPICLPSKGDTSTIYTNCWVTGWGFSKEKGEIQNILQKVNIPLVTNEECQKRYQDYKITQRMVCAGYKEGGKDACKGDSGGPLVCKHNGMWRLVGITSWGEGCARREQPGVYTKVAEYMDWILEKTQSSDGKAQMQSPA
# Sequence (P03952 20-390 partner): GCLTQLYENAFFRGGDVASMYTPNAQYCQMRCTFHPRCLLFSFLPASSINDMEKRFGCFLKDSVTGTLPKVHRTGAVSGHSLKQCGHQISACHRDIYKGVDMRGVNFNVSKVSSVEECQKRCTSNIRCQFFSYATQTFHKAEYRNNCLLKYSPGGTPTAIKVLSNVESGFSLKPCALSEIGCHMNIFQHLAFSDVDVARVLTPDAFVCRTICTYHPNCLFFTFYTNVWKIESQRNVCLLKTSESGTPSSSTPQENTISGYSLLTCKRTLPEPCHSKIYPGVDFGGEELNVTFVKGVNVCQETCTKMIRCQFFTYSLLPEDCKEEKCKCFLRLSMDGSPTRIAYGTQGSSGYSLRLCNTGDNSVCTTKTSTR
# experiment summary: Determination of the plasma kallikrein activity (fluorogenic substrate H-Pro-Phe-Arg-AMC)
# protocol conditions: plasma kallikrein from Kordia 0.6 nM, 15 min preincubation, 30 min at 22° C., fluorescence
outcome measure: IC50 (nM)
Write down the numeric answer in nM and omit the unit.

molecule | subject of test | scale unit | IC50
COCCC(C(=O)Nc1ccn2ncc(Cl)c2c1)n1cc(OC)c(-c2cc(Cl)ccc2C#N)cc1=O (racemic) [Example 41] | human plasma kallikrein (Homo sapiens (Human), UniProt P03952) | nM | 11
CCC(C(=O)Nc1ccn2cc(C(=O)O)nc2c1)n1cc(OC)c(-c2cc(Cl)ccc2C#N)cc1=O (racemic) [Example 3] | human plasma kallikrein (Homo sapiens (Human), UniProt P03952) | nM | 13
COCCC(C(=O)Nc1ccc2nnc(C)n2c1)n1cc(OC)c(-c2cc(Cl)ccc2C#N)cc1=O (racemic) [Example 22] | human plasma kallikrein (Homo sapiens (Human), UniProt P03952) | nM | 8.3

Asked: Complete the entry with IC50 for CCOC(=O)c1cn2ccc(NC(=O)C(CCOC)n3cc(OC)c(-c4cc(Cl)ccc4C#N)cc3=O)cc2n1 (racemic) [Example 11]
Given back: 5

----------
# subject of test: human plasma kallikrein (Homo sapiens (Human))
# experiment summary: Determination of the plasma kallikrein activity (fluorogenic substrate H-Pro-Phe-Arg-AMC)
# protocol conditions: plasma kallikrein from Kordia 0.6 nM, 15 min preincubation, 30 min at 22° C., fluorescence
# Experimental: a.5) Determination of the Plasma Kallikrein Activity To determine the plasma kallikrein inhibition of the substances according to the invention, a biochemical test system is used which utilizes the reaction of a peptidic plasma kallikrein substrate to determine the enzymatic activity of human plasma kallikrein. Here, plasma kallikrein cleaves from the peptic plasma kallikrein substrate the C-terminal aminomethylcoumarin (AMC), the fluorescence of which is measured. […]
Measured IC50, listed per entry for reference.
Note: state the figure and append the unit.

Asked: Complete the entry with IC50 for COc1cn(C(Cc2cnco2)C(=O)Nc2ccc3nccn3c2)c(=O)cc1-c1cc(Cl)ccc1C#N (racemic)
Given back: 11 nM

Asked: Complete the entry with IC50 for COCCC(C(=O)Nc1ccc2nc(-c3ccc(F)cc3)cn2c1)n1cc(OC)c(-c2cc(Cl)ccc2C#N)cc1=O (racemic)
Given back: 25 nM

Asked: Complete the entry with IC50 for CCC(C(=O)Nc1ccc2nncn2c1)n1cc(OC)c(-c2cc(Cl)ccc2C#N)cc1=O (racemic)
Given back: 23 nM

Asked: Complete the entry with IC50 for CCC(C(=O)Nc1ccn2nccc2c1)n1cc(OC)c(-c2cc(Cl)ccc2C#N)cc1=O (racemic)
Given back: 17 nM

Asked: Complete the entry with IC50 for COCCC(C(=O)Nc1ccn2cc(C(N)=O)nc2c1)n1cc(OC)c(-c2cc(Cl)ccc2C#N)cc1=O (racemic)
Given back: 4.9 nM
